- protocol: qHTS for activators of Nrf2/ARE signaling pathway screened against the NCATS CANVASS Library (AID 1347391); note: nearly all actives have a fitted effect of over 60% in size; note: potency is the fitted concentration of half-maximal effect; for activation: 0% is about no effect
- condition_details: ARE-bla HepG2, beta-lactamase reporter, 16 h; series mostly up to 46.1 µM
Results filed as inconclusive are left out. Calls of active or inactive are those of the source. Calls come from the whole dose curve; as a rule, active = well fitted activation curve with a large enough effect; inconclusive = small, poorly fitted or top-dose-only effect; inactive = no such curve, though single readings can be large or run the other way.
quantity_kind: Potency

Some compounds with known Potency results, for comparison:
compound: CC(O)/C=C/C1(O)C(C)(C)CC(O)CC1(C)O (stereo not drawn)
quantity_kind: Potency
observed_result: inactive
--
compound: CC(C)=CCC/C(C)=C/Cc1c(O)c(CC=C(C)C)c(O)c2c(=O)c3cc(O)ccc3oc12
quantity_kind: Potency
observed_result: 2.63 µM (active)
--
compound: CCCCCCC[C@@H](C/C=C/CCC(=O)NCCc1c[nH]c2ccccc12)OC
quantity_kind: Potency
observed_result: inactive
--
compound: C[C@@H]1C(=O)[C@]23CC[C@H]1C[C@]21O[C@H]2C(C)(C)C=CC(=O)[C@]23COC1=O
quantity_kind: Potency
observed_result: inactive
--
compound: CC(=O)[C@@H]1[C@@H](O)C[C@H]2[C@]3(C)CC[C@H]4C(C)(C)CCC[C@]4(CO)[C@H]3C[C@H]3OC(=O)[C@@H]1[C@@]32C
quantity_kind: Potency
observed_result: inactive

Quick batch: Potency for everything below.
1. CN1CCc2cc3c(c4c2[C@H]1[C@@H](O)c1ccccc1-4)OCO3
2. O=C(O)Cc1c[nH]c2ccccc12

Reply:
["20.9 µM (active)", "inactive"]

Please state Potency for every compound in the list that follows.
1. O=C1c2c(O)cc(O)cc2O[C@@H](c2ccc(O)cc2)[C@@H]1c1c(O)cc(O)c2c(=O)cc(-c3ccc(O)c(O)c3)oc12
2. O=C(O)CC1OC(=O)c2c(O)cccc21 (stereo not drawn)

Reply:
inactive
inactive

Take each entry in turn and give its Potency.
1. CC[C@@H]1C[C@@]2(CC)OC(=O)[C@@]3(CC)OC(=O)[C@@H]1[C@@H]23
2. C=C1[C@H]2CC[C@@]3(C=CC(=O)[C@@](C)(CCC(=O)Nc4c(O)ccc(C(=O)O)c4O)C3C2)[C@H]1O (stereo partly drawn)
3. CC1(C)[C@H](Br)CC[C@]23C[C@]4(C)C(=O)CC12C[C@H]34

Reply:
1. inactive
2. inactive
3. inactive

Batch lookup, Potency per entry.
1. C/C1=C/[C@@H](C)[C@H](O)C/C=C/CC/C=C/C(=O)O[C@@H]1[C@H](C)C(=O)/C=C/CC1CC(=O)NC(=O)C1
2. CC1C(=O)C23CCC1C[C@@]21O[C@H]2C(C)(C)C=CC(=O)[C@@]23COC1=O (stereo partly drawn)

Reply:
2.34 µM (active)
inactive

---

- protocol: G06 Cancer Cell Toxicity qHTS against the NCATS CANVASS Library (AID 1347368); note: nearly all actives have a fitted effect of over 60% in size
- condition_details: G06 dog glioma cells, viability ATP luminescence, 72 h; series mostly up to 46.1 µM
Inconclusive results are not listed. The source made the active and inactive calls. Calls follow the shape of the dose curve; as a rule, active = well fitted cell-killing curve with a large enough effect; inconclusive = small, poorly fitted or top-dose-only effect; inactive = flat fitted curve, though single readings scatter.
Hi! Could you answer with just one of these? T = active, F = inactive

Recorded results for 2 compounds are shown here.
compound: CC(=O)O[C@@H]1C=C2C(=O)OC[C@]2(O)[C@@]2(C)CCCC(C)(C)[C@H]12
label: T
//
compound: Oc1ccc(C2c3c(O)cc(O)cc3[C@@H]3C(c4ccc(O)cc4)c4c(O)cc(O)cc4[C@H]23)cc1 (some centres not stated)
label: F

Query: Given "CC1(C)CC[C@]2(C(=O)O)CC[C@]3(C)C(=CC[C@@H]4[C@@]5(C)C[C@@H](O)[C@H](O)C(C)(C)[C@@H]5CC[C@]43C)[C@@H]2C1" , state the outcome it received in this test.
Reply: F

Query: Please share the test call associated with "C/C1=C\CC(=O)/C=C/C=C\c2csc(n2)[C@@H](C)NC(=O)C[C@@](S)([C@@H](C)C(=O)O)CC1" .
Reply: F

Query: Record lookup: outcome of this test for CC1(C)CCC[C@]2(C)[C@@H]1CC[C@@]13C[C@@H](CC[C@H]12)C(C)(O)C3 (some centres not stated) ?
Reply: F

Query: Outcome? "CN1CC[C@]2(c3cccc4c3N[C@@H]3N(C)CC[C@]43[C@@]34CCN(C)[C@@H]3Nc3c([C@]56CCN(C)[C@H]5Nc5ccccc56)cccc34)c3ccccc3N[C@H]12"
Reply: T

Query: How did this test come out for "CC[C@@H]1C[C@@]2(CC)OC(=O)[C@@]3(CC)OC(=O)[C@@H]1[C@@H]23" ?
Reply: F

---

- target_desc: Atrial natriuretic peptide receptor 1 (Homo sapiens) (UniProt P16066)
- Sequence (P16066 whole entry, looked up): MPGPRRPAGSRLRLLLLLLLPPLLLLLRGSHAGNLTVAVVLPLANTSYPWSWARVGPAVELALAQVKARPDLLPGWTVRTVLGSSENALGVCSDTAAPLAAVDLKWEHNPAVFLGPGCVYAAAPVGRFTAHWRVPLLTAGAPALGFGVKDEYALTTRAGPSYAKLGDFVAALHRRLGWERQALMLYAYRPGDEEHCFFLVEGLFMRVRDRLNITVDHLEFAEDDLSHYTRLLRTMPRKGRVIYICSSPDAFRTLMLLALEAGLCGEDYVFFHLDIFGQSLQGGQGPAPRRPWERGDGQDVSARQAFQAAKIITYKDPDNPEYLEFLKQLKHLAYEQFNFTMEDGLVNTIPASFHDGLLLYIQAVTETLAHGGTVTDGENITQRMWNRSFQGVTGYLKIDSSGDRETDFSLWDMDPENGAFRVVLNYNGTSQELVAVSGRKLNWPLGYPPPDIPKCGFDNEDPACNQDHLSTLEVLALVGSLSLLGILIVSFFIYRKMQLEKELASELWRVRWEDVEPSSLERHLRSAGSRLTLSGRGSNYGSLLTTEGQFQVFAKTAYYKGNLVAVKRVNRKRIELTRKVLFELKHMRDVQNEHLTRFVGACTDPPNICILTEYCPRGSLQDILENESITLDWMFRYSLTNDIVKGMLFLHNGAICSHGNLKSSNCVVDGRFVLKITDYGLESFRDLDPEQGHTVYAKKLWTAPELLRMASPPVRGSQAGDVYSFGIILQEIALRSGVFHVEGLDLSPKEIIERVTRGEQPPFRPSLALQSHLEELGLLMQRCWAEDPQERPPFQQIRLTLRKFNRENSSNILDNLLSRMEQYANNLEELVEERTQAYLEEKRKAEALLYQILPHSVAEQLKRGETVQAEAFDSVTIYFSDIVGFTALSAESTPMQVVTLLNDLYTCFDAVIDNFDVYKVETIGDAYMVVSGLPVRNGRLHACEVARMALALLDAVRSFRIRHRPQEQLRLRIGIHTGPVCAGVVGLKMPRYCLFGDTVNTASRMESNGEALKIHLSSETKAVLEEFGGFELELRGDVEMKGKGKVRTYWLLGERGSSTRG
- protocol: Natriuretic polypeptide receptor (hNpr1) antagonism - Pilot CMLD screen (AID 1347052);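 note: cGMP level read as GloSensor luciferase luminescence after agonist stimulation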
- condition_details: HEK293 hNpr1 GloSensor cGMP luminescence, ANP-stimulated; series mostly up to 9.22 µM
Results filed as inconclusive are left out. Active and inactive are the calls of the source. Calls come from the whole dose curve.
Pick one and only one: active, inactive

Query: In this assay, the call recorded for C=C(C)CCN1C(=O)NC(c2ccccc2)C(C(C)=O)=C1C (stereo unspecified) was what?
Reply: inactive

Query: Record lookup: outcome of this test for "COc1ccc([C@]23Cc4cc(C#N)ccc4[C@H](O2)c2c(c4ccc(OC)cc4oc2=O)O3)cc1" ?
Reply: inactive

Query: I would be grateful if you could indicate the recorded call for "C[C@@H]1C[C@H]2[C@@H](Cc3ccccc3)C(=O)N3[C@@H](C[C@@H](C)[C@@H]3c3ccccc3)[C@@H](Cc3ccccc3)C(=O)N2[C@H]1c1ccccc1" .
Reply: inactive

Query: # outcome recorded in this test, key = "COc1cc2c(cc1OC)[C@@H]1O[C@](c3ccsc3)(C2)Oc2cc(C)n(Cc3ccccc3)c(=O)c21"
Reply: active

Query: recorded result category for N#CCCn1cnc2c1NC=NC2Cl (stereo unspecified) in this test
Reply: inactive

Query: Recorded call for "CCO[C@H](c1cc(OC)cc([N+](=O)[O-])c1OC)[C@H](C)[C@@H](OC)[C@H](C)C=CCC(=O)OC" ?
Reply: inactive

Query: Hey, what did the test say about "CC(C)CON=C1C[C@@H](O)[C@@H](O)[C@@H]2[C@H]3C(=O)N(C4CCCCC4)C(=O)[C@@H]3CC[C@@H]12" ?
Reply: inactive

Query: Status in this test for C=C1C2c3ccccc3C(CC2(C)O[Si](C)(C)C)N1C(=O)OC (stereo unspecified) ?
Reply: inactive

Query: In this assay, the call recorded for "COC(=O)C(Cc1cc(Br)c(OC)c(Br)c1O)=NO" was what?
Reply: inactive

Query: What did the test return for "COC(=O)N[C@@H](C=Cc1ccccc1)C(C(=O)OC)=C(C)NCc1ccccc1" ?
Reply: inactive

Query: Short answer needed: outcome of this test for CCCCCC1=CC2=C(C(=O)OC)C(c3ccccc3)NC(=O)N2CC1 (stereo unspecified) ?
Reply: inactive

Query: Could you kindly confirm the outcome this assay logged for "COc1ccc(O[C@H]2C=C[C@@H](c3ccccc3)O[C@H]2COC(=O)CCC(C)=NO[C@@H]2O[C@H](COC(C)=O)[C@@H](OC(C)=O)[C@H](OC(C)=O)[C@@H]2OC(C)=O)cc1" ?
Reply: inactive

---

- protocol: Viability qHTS for inhibitors of the SERCaMP assay screened against the NCATS CANVASS Library (AID 1347400); note: nearly all actives have a fitted effect of over 70% in size
- condition_details: SH-SY5Y SERCaMP cells viability, CellTiter-Glo, 48 h; series mostly up to 92.2 µM
Inconclusive results are not listed. The source made the active and inactive calls. Calls come from the whole dose curve; as a rule, active = well fitted cell-killing curve with a large enough effect; inconclusive = small, poorly fitted or top-dose-only effect; inactive = flat fitted curve, though single readings scatter.
Lab note: assign the record to one of True (active), False (inactive)

molecule: C/C(=C\[C@H](C)C(=O)CCCC1CC(=O)NC(=O)C1)[C@@H]1OC(=O)/C=C/CC/C=C/C[C@@H](O)[C@@H]1C
label: True

molecule: CC1(C)C=Cc2c(ccc3c2OC[C@@H](c2ccc(O)cc2O)C3)O1
label: False

molecule: C=C(C)CC[C@H](Cc1c(O)cc(O)c2c1O[C@H](c1ccc(O)cc1O)CC2=O)C(=C)C
label: False

Consider the additional molecule presented here.
Query: Identify the outcome logged in this assay for the molecule shown: C=C1C[C@@]23C=CC(=O)[C@@](C)(CCCC(C)C(=O)O)[C@@H]2C[C@@H]1CC3 (stereo partly drawn)
Reply: False

---

- protocol: qHTS Assay for Lipid Storage Modulators (AID 1519)
- condition_details: Drosophila S3 cells, BODIPY lipid droplet/cell ratio, laser cytometry; measured here: lipid channel max response; cells loaded with oleic acid
Results filed as inconclusive are left out.
For each record, write down the corresponding max response.
Answers are plain numbers, in %.

Check out these entries, answers already filled in.
smiles_data: N[C@@](C(=O)O)(c1ccc(P(=O)(O)O)cc1)C1CC1
quantity_unit: %
max response: -1.11
--
smiles_data: CC[C@@H]1O[C@]2(C=C[C@@H]1C)C[C@H]1C[C@H](CC=C(C)[C@@H](O[C@@H]3C[C@H](OC)[C@H](O[C@@H]4C[C@H](OC)[C@H](O)[C@H](C)O4)[C@H](C)O3)[C@@H](C)C=CC=C3CO[C@@H]4[C@@H](O)C(C)=C[C@@H](C(=O)O1)[C@]34O)O2
quantity_unit: %
max response: -18.8

Could I get max response for every one of these entries?
1. Nc1nc(Nc2ccccc2)nc2c1ncn2[C@@H]1O[C@@H](CO)[C@H](O)[C@H]1O
2. COc1cc(N)c(Cl)cc1C(=O)CCC1CCN(CCNS(C)(=O)=O)CC1
3. O=C(O)Cc1cc(I)c(Oc2cc(I)c(O)c(I)c2)c(I)c1
4. Cc1nc(N=Nc2cc(S(=O)(=O)O)ccc2S(=O)(=O)O)c(COP(=O)(O)O)c(C=O)c1O
5. N[C@@H](C(=O)O)c1ccc(C(=O)O)cc1

Reply:
1. -4.59
2. 32.4
3. 14.7
4. -2.68
5. 17.4

// input: 2 molecules below; output: max response for each
1. O=C1c2ccc(O)c(O)c2C(=O)c2c(O)ccc(O)c21
2. Cc1cccc(/C=C/c2ccccc2)n1

Reply:
1. -3.59
2. 55.9
